# system.tested: Tyrosine-protein kinase JAK3 (Homo sapiens)
# Sequence (P52333 whole entry): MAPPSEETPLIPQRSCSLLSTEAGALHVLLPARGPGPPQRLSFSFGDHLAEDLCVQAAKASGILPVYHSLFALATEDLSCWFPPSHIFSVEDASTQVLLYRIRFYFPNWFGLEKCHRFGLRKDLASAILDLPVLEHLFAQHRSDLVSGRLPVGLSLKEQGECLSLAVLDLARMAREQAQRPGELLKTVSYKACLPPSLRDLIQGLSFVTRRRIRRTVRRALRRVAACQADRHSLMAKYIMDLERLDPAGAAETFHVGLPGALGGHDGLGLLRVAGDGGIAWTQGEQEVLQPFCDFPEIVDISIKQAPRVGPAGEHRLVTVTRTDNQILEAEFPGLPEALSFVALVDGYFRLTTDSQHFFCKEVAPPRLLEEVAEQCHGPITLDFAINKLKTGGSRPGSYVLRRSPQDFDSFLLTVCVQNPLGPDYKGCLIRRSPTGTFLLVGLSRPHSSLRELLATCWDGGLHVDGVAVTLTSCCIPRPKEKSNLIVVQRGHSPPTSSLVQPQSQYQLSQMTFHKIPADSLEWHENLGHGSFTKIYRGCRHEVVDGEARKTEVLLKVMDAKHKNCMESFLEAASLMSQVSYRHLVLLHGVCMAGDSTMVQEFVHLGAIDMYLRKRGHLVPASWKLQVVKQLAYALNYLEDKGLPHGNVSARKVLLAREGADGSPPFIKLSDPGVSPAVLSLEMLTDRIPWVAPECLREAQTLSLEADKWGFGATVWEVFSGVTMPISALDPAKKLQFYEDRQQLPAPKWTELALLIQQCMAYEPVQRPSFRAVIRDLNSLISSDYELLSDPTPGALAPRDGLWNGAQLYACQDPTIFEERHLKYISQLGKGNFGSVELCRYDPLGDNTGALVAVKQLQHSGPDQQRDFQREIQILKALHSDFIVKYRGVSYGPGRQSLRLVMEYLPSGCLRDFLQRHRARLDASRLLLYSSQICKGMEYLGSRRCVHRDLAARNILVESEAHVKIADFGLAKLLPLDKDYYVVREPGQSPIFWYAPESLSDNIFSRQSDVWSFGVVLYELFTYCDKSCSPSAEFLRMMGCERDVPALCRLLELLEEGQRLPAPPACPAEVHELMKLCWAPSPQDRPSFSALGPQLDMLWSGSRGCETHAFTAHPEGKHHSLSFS
endpoint.name: pIC50
Just so you know, pIC50 here is -log10 of the concentration in molar units; reply with that number alone.

Completed entries (count: 3):
> print(dat)
                                   compound  measured
1  C=CC(=O)N1CC2CC1CN2c1nc(NC)nc(Nc2cc[nH]n2)n1 (centres undefined)      6.16
2  CNc1nc(NCc2cccc(NC(=O)CCl)c2)nc(Nc2cc(C(C)(C)C)[nH]n2)n1      8.05
3  C=CC(=O)Nc1cccc(CNc2nc(NC)nc(Nc3cc(C(C)(C)C)[nH]n3)n2)c1      8.21

Turning now to a further record.
Form entry - test system: Tyrosine-protein kinase JAK3 (Homo sapiens); read-out: pIC50; compound: CNc1nc(NCC(NC(=O)CCl)c2ccccc2)nc(Nc2cc(C(C)(C)C)[nH]n2)n1 (centres undefined)
7.49

---

Parameter IC50: see the listing below.
# system.tested: Tyrosine-protein kinase BTK (Homo sapiens)
# Sequence (Q06187 whole entry): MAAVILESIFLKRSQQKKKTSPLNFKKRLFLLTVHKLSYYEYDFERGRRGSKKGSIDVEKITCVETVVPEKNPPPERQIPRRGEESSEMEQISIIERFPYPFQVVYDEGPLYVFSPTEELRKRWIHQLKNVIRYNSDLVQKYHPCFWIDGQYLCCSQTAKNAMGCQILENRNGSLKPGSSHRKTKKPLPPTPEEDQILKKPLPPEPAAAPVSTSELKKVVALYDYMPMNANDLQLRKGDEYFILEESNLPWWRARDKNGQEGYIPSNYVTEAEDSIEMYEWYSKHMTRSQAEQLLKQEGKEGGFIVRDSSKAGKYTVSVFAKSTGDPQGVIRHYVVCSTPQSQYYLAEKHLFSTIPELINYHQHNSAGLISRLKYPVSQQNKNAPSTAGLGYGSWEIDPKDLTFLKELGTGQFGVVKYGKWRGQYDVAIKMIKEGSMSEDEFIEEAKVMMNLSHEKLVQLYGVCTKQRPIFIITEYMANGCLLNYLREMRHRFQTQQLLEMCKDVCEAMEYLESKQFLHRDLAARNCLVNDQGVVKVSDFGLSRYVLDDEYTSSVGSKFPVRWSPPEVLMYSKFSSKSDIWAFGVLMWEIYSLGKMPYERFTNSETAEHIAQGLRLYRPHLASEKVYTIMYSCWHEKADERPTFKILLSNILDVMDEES
The answer is to be given in nM; state only the numeric part.

> print(dat)
                                 smiles.str  measured
1  CNc1nc(NCc2cccc(NC(=O)CCl)c2)nc(Nc2cc(C(C)(C)C)[nH]n2)n1      1900

Form entry - test system: Tyrosine-protein kinase BTK (Homo sapiens); read-out: IC50; molecule: C=CC(=O)Nc1cccc(CNc2nc(NC)nc(Nc3cc(C(C)(C)C)[nH]n3)n2)c1
98.3
